# MEASUREMENT_DESCRIPTION: chemical genetic growth profiling, strain panel (AID 1159580);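 also: tested at 20 µM; growth read once vehicle control cultures reached saturation at 30 °C; 1 = growth at the plate median or of vehicle wells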
# ASSAY_CONTEXT: S. cerevisiae deletion strains, growth OD, locus YLR258W, strain gsy2
Hit rate of the full screen: of about 5,500 compounds, about 2,000 (36%) were called active. Not shown: some 18% with an inconclusive outcome. Rule as the data show it: active = normalized growth mostly below about 0.91 (no sharp cut-off); inconclusive = no clear call, values can overlap the other calls; inactive = mostly above about 0.92. The list shows a part of the results.
Returns: one label drawn from active, inactive

Kindly provide the recorded test outcome for the following compound: "O=C(/C=C/c1ccccc1)O[C@H]1C[C@@H](O)[C@]2(O)C=CO[C@@H](O[C@@H]3O[C@H](CO)[C@@H](O)[C@H](O)[C@H]3O)[C@H]12"
inactive

Please let me know the test result on file for CC(=O)O[C@]1(C(C)=O)CCC2C3C[C@H](C)C4=CC(=O)CC[C@]4(C)C3CC[C@@]21C (some centres not stated) .
inactive

Assay outcome for CC1(C)C2CC[C@]3(C)C(C(=O)C=C4[C@@H]5C[C@@](C)(C(=O)O)CC[C@]5(C)CC[C@]43C)[C@@]2(C)CC[C@@H]1OC(=O)CCC(=O)O (some centres not stated) : what was it?
inactive

Hey, what did the test say about CC1(C)C2CC[C@]3(C)C(C(=O)C=C4[C@@H]5C[C@@](C)(C(=O)O)CC[C@]5(C)CC[C@]43C)[C@@]2(C)CC[C@@H]1O (some centres not stated) ?
inactive

Answer briefly: the call reported for "Cc1ccc(O)cc1" in this assay.
inactive

Fill in: this test's call for "COc1ccc2c(c1)OC[C@@H](Cc1ccc(OC)c(OC)c1)[C@@H]2O" is ___
inactive

Hi, sorry to bother you, what did the test record for "C[N+](C)(C)CC(=O)[O-]" ?
inactive

Tell me the recorded outcome of this test for COc1ccc(C2CC(=O)c3ccc(OC)cc3O2)cc1 (configuration not stated) .
active

# fetch the recorded call for "O=C1C[C@@H](c2ccc(O)cc2)Oc2cc(O)cc(O)c21" here
inactive

Hi team, can someone confirm the assay call for CC(=O)[C@H]1CCC2C3C[C@H](C)C4=CC(=O)CC[C@]4(C)C3[C@@H](O)C[C@@]21C (some centres not stated) ?
inactive

For this compound, state the assay outcome: "NC(N)=Nc1nc(CSCCC(N)=NS(N)(=O)=O)cs1"
inactive

Give the logged outcome of this assay for the following compound: CC(=O)O[C@]1(C(C)=O)CCC2C3C=C(Cl)C4=CC(=O)CC[C@]4(C)C3CC[C@@]21C (some centres not stated)
inactive

----------
# MEASUREMENT_DESCRIPTION: chemical genetic growth profiling, strain panel (AID 1159580)
# ASSAY_CONTEXT: S. cerevisiae deletion strains, growth OD, locus YLL001W, strain dnm1, active compounds read low
Out of some 5,500 compounds screened, about 2,000 (36%) were called active. Roughly 18% stayed inconclusive and do not appear here. This is one part of the list.
Please assign rule not met whenever normalized growth is at or above 1, and rule met whenever it is below.

Regarding CCCCCC(C)N (centres undefined) , kindly confirm whether its normalized growth is beneath 1.
rule not met

Item "NC(=O)N1c2ccccc2CC(=O)c2ccccc21" : normalized growth beneath 1, strictly?
rule met

Given "O=C(/C=C/C=C/c1ccc2c(c1)OCO2)N1CCCCC1" , is recorded normalized growth strictly lower than 1?
rule met

In the record for CNC1(C)C2CCC(C2)C1(C)C (centres undefined) , is normalized growth less than 1?
rule met

Say whether its normalized growth is strictly beneath 1. Entry: "c1ccc(CN(CC2=NCCN2)c2ccccc2)cc1"
rule not met

For this compound, is normalized growth lower than 1? "N=c1nc(N2CCCCC2)cc(N)n1O"
rule met

----------
# MEASUREMENT_DESCRIPTION: chemical genetic growth profiling, strain panel (AID 1159580);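 also: tested at 20 µM; growth read once vehicle control cultures reached saturation at 30 °C; 1 = growth at the plate median or of vehicle wells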
# ASSAY_CONTEXT: S. cerevisiae deletion strains, growth OD, locus YHR027C, strain rpn1, active compounds read low
Screen size: about 5,500 compounds; about 2,000 (36%) were called active. Inconclusive results (about 18%) are left out. The list shows a part of the results.
Would you kindly list normalized growth for each of these molecules?
Write the value as a bare number.

Per the records, this molecule ( CC(=O)OC1CC23CC24CCC(OC2OCC(O)C(O)C2O)C(C)(C)C4CCC3C2(C)CC3OC4(CC(C)C3C12C)OC(O)C1(C)OC41 (stereo not drawn) ) has normalized growth equal to 1

Please fill in: normalized growth reported for "c1ccc(CN(CC2=NCCN2)c2ccccc2)cc1" = 1.02

Kindly note the recorded normalized growth for "CC(C)=CCc1c(O)cc2oc(C)cc(=O)c2c1O" , which is 0.999

Notebook: "COc1ccc(-c2coc3c(O)c(OC)ccc3c2=O)cc1" , normalized growth read as 0.98

normalized growth reported for this molecule "Cc1c(N(C)C)c(=O)n(-c2ccccc2)n1C" : 0.996

Record "c1ccc(CC2=NCCN2)cc1" . Reported normalized growth: 1.02

Sure, the documented normalized growth for "O=C(O)COc1cc(Cl)c(Cl)cc1Cl" is 0.998

Lab note: measured normalized growth of "NC(N)=Nc1nc(CSCCC(N)=NS(N)(=O)=O)cs1" was 0.993

----------
Hi there, I'd appreciate the recorded normalized growth for every entry that follows.
# MEASUREMENT_DESCRIPTION: chemical genetic growth profiling, strain panel (AID 1159580);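 also: tested at 20 µM; growth read once vehicle control cultures reached saturation at 30 °C; 1 = growth at the plate median or of vehicle wells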
# ASSAY_CONTEXT: S. cerevisiae deletion strains, growth OD, locus YJL157C, strain FAR1, active compounds read low
Among all 5,500 compounds or so, about 2,000 (36%) were called active. Roughly 18% stayed inconclusive and do not appear here. This is one part of the list.
Number, no unit, nothing else.

Per the records, this molecule ( "O=C(Oc1cc(Cl)c(Cl)cc1Cl)C1c2ccccc2Oc2ccccc21" ) has normalized growth equal to 0.979

Recorded normalized growth (molecule CCC(C)c1ccccc1NC(=O)c1cc2cccc([N+](=O)[O-])c2[nH]1 (stereo not drawn) ): 0.884

normalized growth recorded for this molecule, Cc1oc2c(F)c(F)c(F)c(F)c2c1C(=O)ONC(N)c1ccc(OS(=O)(=O)N(C)C)cc1 (stereo not drawn) , is 0.963

# normalized growth of "Cc1c(Cl)cccc1NC(=S)N1CCCN(c2nc3ccc(Cl)cc3s2)CC1" = 0.897

molecule "N#C/C(=C\c1ccccc1Sc1ccc(Cl)cc1)S(=O)(=O)c1ccccn1" , normalized growth observed: 0.897

Reported normalized growth ( "O=[N+]([O-])c1cc(C(F)(F)F)ccc1-n1ccc(-c2cccs2)n1" ) = 0.84

Short answer for "O=C(C=C(O)c1ccc(Br)cc1)C(=O)Nc1ccccc1" : normalized growth was 0.113

The recorded normalized growth for "COc1ccc(NC(=O)O/N=C(/N)c2ccc(Oc3c(Cl)cncc3Cl)cc2)cc1" is 0.805

Documented normalized growth of "C/C(=N/NC(N)=S)c1ccccn1" : 0.88

The reported value for "NCCCN=c1ccc2c3c1c(O)c1c(O)ccc(=O)c1c3[nH]n2CCNCCO" in terms of normalized growth is 0.994

Sample "O=C(NCc1ccco1)c1ccc(Oc2cc(Cl)cc(Cl)c2)o1" ; normalized growth observed: 0.941

Just so you know, measured normalized growth for Cc1ccccc1C(=O)N1CCc2c([nH]c3ccccc23)C1C(F)(F)F (stereo not drawn) came out at 0.976

Briefly, normalized growth measured for "N#C/C(=N/Nc1ccccc1Cl)S(=O)(=O)c1ccc(Cl)cc1" : 0.909

----------
# MEASUREMENT_DESCRIPTION: chemical genetic growth profiling, strain panel (AID 1159580);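 also: tested at 20 µM; growth read once vehicle control cultures reached saturation at 30 °C; 1 = growth at the plate median or of vehicle wells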
# ASSAY_CONTEXT: S. cerevisiae deletion strains, growth OD, locus YMR078C, strain ctf18, active compounds read low
About 2,000 (36%) of roughly 5,500 compounds were called active. Inconclusive results (about 18%) are left out. This is one part of the list.
Give normalized growth for every item shown.
Number only, no unit.

response.value for CCc1ccc(CCOc2ccc(CC3SC(=O)NC3=O)cc2)nc1 (stereo not given) (field: normalized growth) = 0.985

Consider "CC(C)=CCc1c(O)cc(C)oc1=O" . Its measured normalized growth is 0.98

The recorded normalized growth for CCCCCC(=O)O[C@]1(C(C)=O)CCC2C3CCC4=CC(=O)CC[C@]4(C)C3CC[C@@]21C (stereo not given in full) is 1.01

normalized growth in this record for "O=C(O)c1cc(=O)c2ccc(Cl)cc2[nH]1" : 0.987

Noted for "CC(=C(CCOP(=O)(O)O)SC(=O)c1ccccc1)N(C=O)Cc1cnc(C)nc1N" : its normalized growth reads 1.01

normalized growth reported for this molecule COC(=O)C1[C@H]2C[C@H]3c4[nH]c5ccccc5c4CCN3C[C@@H]2CC[C@@H]1O (stereo not given in full) : 1.01

Notebook: "Cc1c(O)cc(O)c2c(=O)c(-c3ccc(O)cc3)coc12" , normalized growth read as 1.01

The molecule listed as C=C1CC[C@H](O)C/C1=C/C=C1\CCC[C@]2(C)C([C@H](C)/C=C/[C@H](C)C(C)C)CC[C@@H]12 (stereo not given in full) shows normalized growth equal to 0.984

The reported normalized growth of the molecule "OC(CCN1CCCCC1)(c1ccccc1)c1ccccc1" was 1.01

According to the records, this molecule "NC(=O)N1c2ccccc2CC(=O)c2ccccc21" displays normalized growth of 0.973

normalized growth reading for "O=[N+]([O-])O[C@H]1CO[C@H]2[C@@H]1OC[C@H]2O[N+](=O)[O-]" : 1.02

Entry under test: "NC(N)=NOCC[C@H](N)C(=O)O" . Its normalized growth was 0.998

Form: molecule = "COc1c(CC=C(C)C)c2c(c3oc(=O)c(-c4ccc(OC(C)=O)cc4)c(OC(C)=O)c13)C=CC(C)(C)O2" ; normalized growth = 1

According to the records, this molecule O=C(O)C1C(O)CCC2CN3CCc4c([nH]c5ccccc45)C3CC21 (stereo not given) displays normalized growth of 1.01

Measured normalized growth, "O=c1ccc2cc(O)c(O)cc2o1" : 0.989

The molecule identified as "CCCCOc1ccc(CC(=O)NO)cc1" registered its normalized growth at 1

Given item Cc1ccc(C(=O)C(C)CN2CCCCC2)cc1 (stereo not given) , the value recorded as its normalized growth is 1.02

Please fill in: normalized growth reported for "CCc1nc(N)nc(N)c1-c1ccc(Cl)cc1" = 0.998

Value of normalized growth reported for the molecule "CC(C)[N+](C)(CCOC(=O)C1c2ccccc2Oc2ccccc21)C(C)C" is 1

Record summary for COC(=O)[C@@H]1C(O)CC[C@H]2CN3CCc4c([nH]c5ccccc45)[C@@H]3C[C@@H]21 (stereo not given in full) : reported normalized growth = 0.988

According to the records, this molecule "O=c1ccc2ccccc2o1" displays normalized growth of 0.989

Please fill in: normalized growth reported for CC(=O)O[C@]1(C(C)=O)CCC2C3C=C(C)C4=CC(=O)CCC4(C)C3CCC21C (stereo not given in full) = 0.961

Given item "COc1c(CC=C(C)C)c2c(c3oc(=O)c(-c4ccc(O)cc4)c(O)c13)C=CC(C)(C)O2" , the value recorded as its normalized growth is 0.98

get_value(item= "COC(=O)[C@H]1[C@H]2C[C@H]3c4[nH]c5ccccc5c4CCN3C[C@H]2CC[C@@H]1O" , readout=normalized growth) returns 1.01

// sample "CCCCOc1ccc(C(=O)CCN2CCCCC2)cc1" , its normalized growth was 0.138

Input "C[CH2][Hg][S]c1ccccc1C(=O)O" . Output normalized growth: 0.0699

get_value(item= CC1(C)S[C@@H]2[C@H](NC(=O)[C@H](NC(=O)N3CCNC3=O)c3ccccc3)C(=O)N2C1C(=O)O (stereo not given in full) , readout=normalized growth) returns 0.98

Item: "NC(=O)c1ncn([C@@H]2O[C@H](CO)[C@@H](O)[C@H]2O)c1O" | normalized growth: 1.02

normalized growth reported for this molecule "c1ccc(CN(CC2=NCCN2)c2ccccc2)cc1" : 1

CC(=O)O[C@]1(C(C)=O)CCC2C3C[C@H](C)C4=CC(=O)CC[C@]4(C)C3CC[C@@]21C (stereo not given in full) has a reported normalized growth of 0.97
